Here's what we have: IC50 numbers for GST-JAK3(811-1124) (Homo sapiens, UniProt P52333).
Readout Label: IC50 (nM)

{"columns": ["Compound", "IC50 (nM)"],
 "data": [
  ["COCCn1cc(-c2cnc3cccc(-c4cc(F)c(CN5CCOCC5)c(F)c4)c3n2)cn1 [Example 115]", 1600]
]}

P = Cc1cc(-c2cnc3cccc(-c4ccc(CN5CCS(=O)(=O)CC5)c(Cl)c4)c3n2)ccc1C(=O)N1CCOCC1 [Example 61]
Q = Cc1cc(-c2cnc3cccc(-c4cc(F)c(CN5CCS(=O)(=O)CC5)c(F)c4)c3n2)cnc1C(=O)N(C)CCN(C)C [Example 113]
R = CN1CCN(c2ccc(-c3cnc4cccc(-c5ccc(CC(=O)N6CCOCC6)c(F)c5)c4n3)cc2)CC1 [Example 88]
S = CS(=O)(=O)c1ccc(-c2cccc3ncc(-c4cnn(C5CCNCC5)c4)nc23)cc1F [Example 99]
Asked: Descending sort on IC50 required. Please write the labels in the order that was asked for.
Given back: S, Q, P, R
(S: 4850 nM, Q: 3300 nM, P: 1400 nM, R: 840 nM)

---

Subject Of Test: GST-TYK2(888-1187) (Homo sapiens)
Sequence (P29597 888-1187): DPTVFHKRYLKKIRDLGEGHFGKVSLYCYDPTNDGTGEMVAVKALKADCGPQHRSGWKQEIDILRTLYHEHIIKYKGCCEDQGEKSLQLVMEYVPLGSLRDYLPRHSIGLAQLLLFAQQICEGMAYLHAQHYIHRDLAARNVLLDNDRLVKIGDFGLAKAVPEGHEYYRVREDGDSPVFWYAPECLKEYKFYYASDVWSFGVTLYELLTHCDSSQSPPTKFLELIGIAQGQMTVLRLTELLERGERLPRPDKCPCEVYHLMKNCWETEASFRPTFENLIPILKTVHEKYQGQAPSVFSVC
Readout Label: IC50 (nM)

Example compounds with recorded IC50:
{"columns": ["Compound", "Subject Of Test", "Measured Result"],
 "data": [
  ["Cc1cc(-c2cccc3ncc(-c4cnn(C5CCNCC5)c4)nc23)ccc1C(=O)N1CCOCC1 [Example 100]", "GST-TYK2(888-1187) (Homo sapiens)", 1200],
  ["Cc1cc(-c2cnc3cccc(-c4cc(F)c(CN5CCOCC5)c(F)c4)c3n2)ccc1C(=O)N1CCN(C)CC1 [Example 42]", "GST-TYK2(888-1187) (Homo sapiens)", 1450]
]}

P = Fc1cc(-c2cccc3ncc(-c4cnn(CC5CCNCC5)c4)nc23)cc(F)c1CN1CCOCC1 [Example 133]
Q = Fc1cc(-c2cccc3ncc(-c4cnn(C5CCNCC5)c4)nc23)ccc1CN1CCOCC1 [Example 145]
R = Cc1nn(C2CCNCC2)c(C)c1-c1cnc2cccc(-c3ccc(CN4CCS(=O)(=O)CC4)cc3)c2n1 [Example 157]
Asked: Descending sort on IC50 required. Please write the labels in the order that was asked for.
Given back: R, P, Q

---

Subject Of Test: GST-JAK2(808-1132) (Homo sapiens)
Construct: GST-JAK2(808-1132); purchased Invitrogen (Carlsbad, USA) #4288
Sequence (O60674 808-1132): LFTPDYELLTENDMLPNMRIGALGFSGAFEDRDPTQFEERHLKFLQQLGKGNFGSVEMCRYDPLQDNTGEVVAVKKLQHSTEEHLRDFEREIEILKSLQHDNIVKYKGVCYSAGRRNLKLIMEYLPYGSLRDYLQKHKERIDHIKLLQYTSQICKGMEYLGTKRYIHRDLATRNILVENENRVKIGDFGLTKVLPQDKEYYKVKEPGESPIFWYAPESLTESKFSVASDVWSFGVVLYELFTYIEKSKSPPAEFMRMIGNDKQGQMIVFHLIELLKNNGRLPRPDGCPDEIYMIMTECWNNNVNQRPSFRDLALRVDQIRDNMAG
Experimental Details: EPK JAK-family kinases profiling assay (Caliper mobility shift), JAK2
Type: biochemical
Reported Conditions: ATP 20 μM, […] kinase
Readout Label: pIC50
Please report pIC50 as the negative decimal logarithm of the molar concentration, giving only the number.

Asked: Given the compound COc1cc(-c2cnc3cccc(-c4ccc(CC(=O)N5CCS(=O)(=O)CC5)cc4)c3n2)cc(OC)c1OC [Example 13] , what is its reported pIC50?
Given back: 8.29

---

Subject Of Test: GST-TYK2(888-1187) (Homo sapiens)
Readout Label: IC50 (nM)

Example molecules with recorded IC50:
{"columns": ["Molecule", "Subject Of Test", "Measured Result"],
 "data": [
  ["COc1cc(-c2cnc3cccc(-c4ccc(CN5CCS(=O)(=O)CC5)c(F)c4)c3n2)ccc1OCCCN1CCOCC1 [Example 85]", "GST-TYK2(888-1187) (Homo sapiens)", 115],
  ["Cc1cc(-c2cnc3cccc(-c4cc(F)c(CN5CCOCC5)c(F)c4)c3n2)ccc1C(=O)NCCO [Example 120]", "GST-TYK2(888-1187) (Homo sapiens)", 350]
]}

A = Cc1cc(-c2cccc3ncc(-c4cnn(CCCN5CCOCC5)c4)nc23)ccc1C(=O)N1CCOCC1 [Example 114]
B = COCCN1CCC(n2cc(-c3cnc4cccc(-c5cc(F)c(CN6CCOCC6)c(F)c5)c4n3)cn2)CC1 [Example 123]
Asked: Record comparison, field IC50: mark the lower of A and B . Please reply using the label of the selected record.
Given back: B
(B: 170 nM, A: 345 nM)

---

Here's what we have: IC50 numbers for GST-JAK3(811-1124) (Homo sapiens, UniProt P52333).
Readout Label: IC50 (µM)

Example compounds with recorded IC50:
{"columns": ["Smiles Data", "Value Unit", "IC50"],
 "data": [
  ["Fc1cc(-c2cccc3ncc(-c4cnn(C5CCOCC5)c4)nc23)cc(F)c1CN1CCOCC1", "µM", 1.03],
  ["COc1cc(-c2cnc3cccc(-c4ccc(CC(=O)N5CCOCC5)cc4)c3n2)ccc1OCCN1CCOCC1", "µM", 0.49],
  ["O=C(c1ccc(-c2cccc3ncc(-c4ccc(OCCCN5CCOCC5)cc4)nc23)cc1F)N1CCOCC1", "µM", 1.7],
  ["COCCOc1ccc(-c2cnc3cccc(-c4ccc(CC(=O)N5CCOCC5)c(F)c4)c3n2)cc1OC", "µM", 4.4],
  ["CN1CCN(c2ccc(-c3cnc4cccc(-c5cc(F)c(C(=O)N6CCOCC6)c(F)c5)c4n3)cc2)CC1", "µM", 3.95]
]}

I = Fc1cc(-c2cccc3ncc(-c4cnn(C5CNC5)c4)nc23)cc(F)c1CN1CCOCC1
II = O=C(c1ccc(-c2cccc3ncc(-c4ccc(OCCCN5CCOCC5)cc4)nc23)cc1F)N1CCS(=O)(=O)CC1
Asked: Please tell me which of the two, I or II , has the higher reported IC50 value. Please reply using the label of the selected record.
Given back: I

1 = COCCOc1ccc(-c2cnc3cccc(-c4ccc(CN5CCS(=O)(=O)CC5)c(C)c4)c3n2)cc1OC
2 = COc1cc(-c2cnc3cccc(-c4ccc(S(C)(=O)=O)cc4)c3n2)cc(OC)c1OC
Asked: Please tell me which of the two, 1 or 2 , has the higher reported IC50 value. Please reply using the label of the selected record.
Given back: 2
(2: 5.4 µM, 1: 1.1 µM)

---

Subject Of Test: GST-TYK2(888-1187) (Homo sapiens)
Construct: GST-TYK2(888-1187); made in house
Experimental Details: EPK JAK-family kinases profiling assay (Caliper mobility shift), TYK2
Assay type: biochemical
Reported Conditions: ATP 30 μM, 40 nM kinase
Readout Label: IC50 (nM)

{"columns": ["Smiles Data", "Value Unit", "IC50"],
 "data": [
  ["CC(C)(C)OC(=O)N1CCC(n2cc(-c3cnc4cccc(-c5cc(F)c(CN6CCOCC6)c(F)c5)c4n3)cn2)CC1", "nM", 260]
]}

P = CN1CCN(c2ccc(-c3cnc4cccc(-c5cc(F)c(CN6CCOCC6)c(F)c5)c4n3)cn2)CC1
Q = CC(C)(O)C#Cc1cnc2cccc(-c3cc(F)c(CN4CCS(=O)(=O)CC4)c(F)c3)c2n1
Asked: Please tell me which of the two, P or Q , has the higher reported IC50 value. Please reply using the label of the selected record.
Given back: P

a = CCN1CCN(c2ccc(-c3cnc4cccc(-c5cc(F)c(CN6CCOCC6)c(F)c5)c4n3)cc2C)CC1
b = CN1CCN(c2ccc(-c3cnc4cccc(-c5cc(F)c(C(=O)N6CCOCC6)c(F)c5)c4n3)cc2)CC1
Asked: Record comparison, field IC50: mark the lower of a and b . Please reply using the label of the selected record.
Given back: b
(b: 450 nM, a: 1200 nM)

---

Subject Of Test: GST-TYK2(888-1187) (Homo sapiens)
Sequence (P29597 888-1187): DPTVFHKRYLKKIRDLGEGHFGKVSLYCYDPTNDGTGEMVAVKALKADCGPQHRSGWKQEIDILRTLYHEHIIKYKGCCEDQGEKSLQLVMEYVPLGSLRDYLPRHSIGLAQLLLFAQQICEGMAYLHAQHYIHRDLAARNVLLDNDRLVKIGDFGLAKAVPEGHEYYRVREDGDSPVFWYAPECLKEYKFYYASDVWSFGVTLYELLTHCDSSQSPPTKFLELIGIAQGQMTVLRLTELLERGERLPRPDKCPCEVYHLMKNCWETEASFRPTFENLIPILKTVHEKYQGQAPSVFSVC
pIC50: −log10 of the molar value.
Readout Label: pIC50

Example compounds with recorded pIC50:
{"columns": ["Smiles Data", "pIC50"],
 "data": [
  ["Cc1nn(C2CCNCC2)cc1-c1cnc2cccc(-c3cc(F)c(CN4CCOCC4)c(F)c3)c2n1", 7.42],
  ["CN1CCN(C(=O)c2cc(-c3cnc4cccc(-c5cc(F)c(CN6CCS(=O)(=O)CC6)c(F)c5)c4n3)cn2C)CC1", 7.52],
  ["CS(=O)(=O)c1ccc(-c2cccc3ncc(-c4cnn(C5CCNCC5)c4)nc23)cc1F", 6.09],
  ["O=S1(=O)CCN(Cc2c(F)cc(-c3cccc4ncc(-c5cccc(N6CCNCC6)c5)nc34)cc2F)CC1", 7.59],
  ["COCCOc1ccc(-c2cnc3cccc(-c4cc(F)c(CN5CCOCC5)c(F)c4)c3n2)cc1OC", 5.80],
  ["CCN1CCN(Cc2ccc(-c3cnc4cccc(-c5cc(F)c(CN6CCOCC6)c(F)c5)c4n3)cc2C)CC1", 5.44],
  ["COc1ccc(-c2cnc3cccc(-c4ccc(CN5CCS(=O)(=O)CC5)cc4)c3n2)cc1N1CCN(C)CC1", 6.32],
  ["Cc1cc(-c2cnc3cccc(-c4cc(F)c(CN5CCS(=O)(=O)CC5)c(F)c4)c3n2)ccc1C(=O)N1CCN(C)CC1", 6.62],
  ["COc1cc(-c2cnc3cccc(-c4cc(F)c(CN5CCOCC5)c(F)c4)c3n2)ccc1OCCCN1CCOCC1", 6.57],
  ["CN1CCN(c2ccc(-c3cnc4cccc(-c5cc(F)c(CN6CCOCC6)c(F)c5)c4n3)cc2)CC1", 6.14]
]}

P = O=C(C1CC1)N1CCC(n2cc(-c3cnc4cccc(-c5cc(F)c(CN6CCOCC6)c(F)c5)c4n3)cn2)CC1
Q = Cc1cc(-c2cccc3ncc(-c4cnn(C5CCNCC5)c4)nc23)ccc1CN1CCOCC1
R = Cc1cc(-c2cnc3cccc(-c4cc(F)c(CN5CCS(=O)(=O)CC5)c(F)c4)c3n2)ccc1C(=O)N1CCC(N(C)C)CC1
Asked: Please list these in order of increasing pIC50. Thank you! Please write the labels in the order that was asked for.
Given back: R, Q, P
